Biological target: T1, human C1s (human, UniProt P09871 16-688)
T1 construct: also called hC1s; serum-derived human C1s (CompTech)
T1 sequence: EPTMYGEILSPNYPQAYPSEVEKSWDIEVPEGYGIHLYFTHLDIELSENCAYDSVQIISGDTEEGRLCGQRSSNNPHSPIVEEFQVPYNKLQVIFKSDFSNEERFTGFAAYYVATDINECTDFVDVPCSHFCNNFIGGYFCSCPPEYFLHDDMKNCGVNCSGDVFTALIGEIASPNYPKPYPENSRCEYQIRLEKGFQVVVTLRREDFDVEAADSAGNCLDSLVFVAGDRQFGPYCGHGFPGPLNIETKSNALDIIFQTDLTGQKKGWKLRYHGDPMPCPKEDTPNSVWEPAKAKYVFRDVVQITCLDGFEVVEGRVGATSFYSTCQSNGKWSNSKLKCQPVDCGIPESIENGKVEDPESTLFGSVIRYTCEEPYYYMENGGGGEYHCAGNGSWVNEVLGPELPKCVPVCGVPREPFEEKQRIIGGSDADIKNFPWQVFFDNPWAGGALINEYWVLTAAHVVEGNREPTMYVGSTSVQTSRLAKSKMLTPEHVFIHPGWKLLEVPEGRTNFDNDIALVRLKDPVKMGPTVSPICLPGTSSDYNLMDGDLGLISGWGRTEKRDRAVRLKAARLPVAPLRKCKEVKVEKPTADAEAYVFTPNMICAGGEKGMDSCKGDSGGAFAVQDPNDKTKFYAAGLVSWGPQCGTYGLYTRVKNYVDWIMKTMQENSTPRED
Experiment: SPR, Ab captured; pH 5.8, 1.2 mM Ca
parameter: Kd (nM)
Reply with just the number (in nM).

[
  {
    "binder": "C1_IPN009VH2-SG4GK/IPN93L0028-SK1 (antibody, human IgG4 S228P, kappa, name in Kabat numbering, V domains shown, also called IPN009VH2/IPN93L0028) VH: EVMLVESGGGLVKPGGSLRLSCAASGFTFSNYAMSWVRQAPGKGLEWVATISSGGSHTYYLDSVKGRFTISRDNSKDTLYLQMNSLRAEDTALYYCARLFTGYAMDYWGQGTLVTVSS VL: QIVLTQSPATLSLSPGERATLSCTASSSVSSSYLHWYQQKPGKAPKLWIYSTSNLASGVPSRFSGSGSGTDYTLTISSLQPEDFATYYCHQYHRHPPITFGQGTKLEIKR",
    "unitAbbreviation": "nM",
    "Kd": 14.1
  },
  {
    "binder": "C1_IPN92H0026-SG4GK/IPN93L0031-SK1 (antibody, human IgG4 S228P, kappa, name in Kabat numbering, V domains shown, also called IPN92H0026/IPN93L0031) VH: EVMLVESGGGLVKPGGSLRLSCAASGFTFSNYAMSWVRQAPGKGLEWVATISSGGSHTYYLDSVKHRFTISRDNSKDTLYLQMNSLRAEDTALYYCARLFTGYAMDYWGQGTLVTVSS VL: QIVLTQSPATLSLSPGERATLSCTASSSVSSSYLHWYQQKPGKAPKLWIYSTSNLASGVPSRFSGSGSGTDYTLTISSLQPEDFATYYCHQYHRHHPITFGQGTKLEIKR",
    "unitAbbreviation": "nM",
    "Kd": 4290
  },
  {
    "binder": "C1_IPN92H0026-SG4GK/IPN93L0030-SK1 (antibody, human IgG4 S228P, kappa, name in Kabat numbering, V domains shown, also called IPN92H0026/IPN93L0030) VH: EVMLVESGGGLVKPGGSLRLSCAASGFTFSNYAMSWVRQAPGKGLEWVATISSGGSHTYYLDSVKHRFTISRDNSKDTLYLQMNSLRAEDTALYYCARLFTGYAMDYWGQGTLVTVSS VL: QIVLTQSPATLSLSPGERATLSCTASSSVSSSYLHWYQQKPGKAPKLWIYSTSNLASGVPSRFSGSGSGTDYTLTISSLQPEDFATYYCHQYYRHHPITFGQGTKLEIKR",
    "unitAbbreviation": "nM",
    "Kd": 26.2
  }
]

Exercise: For the binder C1_IPN92H0033-SG4GK/IPN93L0030-SK1 (antibody, human IgG4 S228P, kappa, name in Kabat numbering, V domains shown, also called IPN92H0033/IPN93L0030) VH: EVMLVESGGGLVKPGGSLRLSCAASGFTFSNYAMSWVRQAPGKGLEWVATISSGGSHTYYLDSVKGRFTISRDNSKDTLYLQMNSLRAEDTALYYCARLFTGHAMDYWGQGTLVTVSS VL: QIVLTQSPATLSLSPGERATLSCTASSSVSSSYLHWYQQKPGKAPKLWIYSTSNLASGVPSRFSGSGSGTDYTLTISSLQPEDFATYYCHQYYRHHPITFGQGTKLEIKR , what Kd is on record?
Key: 89.3

Exercise: Also C1_IPN92H0048-SG4GK/IPN93L0024-SK1 (antibody, human IgG4 S228P, kappa, name in Kabat numbering, V domains shown, also called IPN92H0048/IPN93L0024) VH: EVMLVESGGGLVKPGGSLRLSCAASGHTFSNYAMSWVRQAPGKGLEWVATISSGGSHTYYLDSVKGRFTISRDNSKDTLYLQMNSLRAEDTALYYCARLFTGHAMDYWGQGTLVTVSS VL: QIVLTQSPATLSLSPGERATLSCTASSSVSSSYLHWYQQKPGKAPKLWIYSTSNLASGVPSRFSGSGSGTDYTLTISSLQPEDFATYYCHQYYRLHPITFGQGTKLEIKR , if possible.
Key: 12.1
